pKi: −log10 of the molar value.
Published pKi for Muscarinic acetylcholine receptor M2 (Homo sapiens, UniProt P08172), assembled from different documents, is shown next.
measurement-label: pKi

# count of solved cases: 4
C=C(c1ccc(S(=O)(=O)c2ccc(OC)cc2)cc1)C1CCN(C2CCN(C(=O)OCC)CC2)CC1 | 9.96
Cc1cccc(S(=O)(=O)c2ccc([C@H](C)N3CCN(C4CCN(C(=O)c5ccccc5C)CC4)C[C@H]3C)cc2)c1 | 9.40
NCCCCCCN1CCC(COC(=O)Nc2ccc(F)cc2-c2ccc(F)c(Cl)c2)CC1 | 8.85
CCOC(=O)c1c(C)[nH]c2ccc3c(c12)CN1CCc2cc(OC)ccc2C1O3 (stereo not drawn) | 5.96

(a) Cc1ccccc1C(=O)N1CCC(N2CCC(Cc3ccc(C(=O)NC(C)C)cc3)CC2)CC1
(b) C=C(c1ccc(S(=O)(=O)c2ccc(OC)cc2)cc1)C1CCN(C2CCN(C(=O)C(C)C)CC2)CC1
(c) O=C(CCNC(=O)[C@@H]1CCCN1C(=O)CC(c1ccccc1)(c1ccccc1)c1ccccc1)NC[C@H]1CCCN(CC2CCCCC2)C1
Arrange the 3 molecules from largest to smallest pKi. The reply should contain the labels ordered as requested.
b, a, c
(b: 8.66, a: 8.15, c: 7.92)
